- Test system: RPMI-8226 leukemia
- PROCEDURE_DETAILS: NCI tumour cell line growth inhibition, 48 h
READOUT: TGI (µM)
Numbers only, in µM.

Answered cases to consult:
[[record]]
structure_smiles = "Cc1nc2ccccc2c(/C=C/c2ccc(Cl)cc2)c1C(=O)/C=C/c1ccc(Cl)cc1"
unit_abbreviation = "µM"
numeric_result = 6.34

[[record]]
structure_smiles = "O=C(NNc1nc(-c2ccccc2)cs1)C(F)(F)F"
unit_abbreviation = "µM"
numeric_result = 47


Entry C[C@H](C/C=C/C(C)(C)O)[C@H]1CC[C@@]2(C)[C@@H]3CC[C@H]4C(C)(C)[C@@H](O)CC[C@@]45C[C@@]35CC[C@]12C , TGI reported as 52.8
